# Assay Details: in vivo
# Format: in vivo, mice
# Measurement Parameters: female, NMRI, mouse, in vivo, 500 mg/kg, CPZ i.p. + 500 mg/kg SBECD i.v., female NMRI mice; read-out: LD50 (based on 24 h mortality)
Structures can show the parent of a compound that is named as a salt.
Metric Name: LD50 (mg/kg)
Kindly answer with a numeric value in mg/kg, unit omitted.

-- ask Consider the compound shown here: CN(C)CCCN1c2ccccc2Sc2ccc(Cl)cc21 [CPZ, Chlorpromazine hydrochloride] What is its recorded LD50?
-- reply 206

====

# Assay Details: in vivo
# Format: in vivo, mice
# Measurement Parameters: female, NMRI, mouse, in vivo, CPZ i.p., control (physiological saline i.v.), female NMRI mice; read-out: LD50 (based on 24 h mortality)
Structures can show the parent of a compound that is named as a salt.
Metric Name: LD50 (mg/kg)
Kindly answer with a numeric value in mg/kg, unit omitted.

-- ask Consider the molecule shown here: CN(C)CCCN1c2ccccc2Sc2ccc(Cl)cc21 [CPZ, Chlorpromazine hydrochloride] What is its recorded LD50?
-- reply 194

Cited source: paper PMC9504268
